Listed next: entries and their corresponding cell count.
test.description: viability loss with induced miR-34 in A549 – imaging, A549 dox-inducible miR-34, nuclei and caspase counts, primary screen (AID 1347080)
measurement.setup: A549 miR-34 inducible, Hoechst nuclei count, 48 h; measured here: total cells with miR-34 induction; stronger effect = lower value
Output: the number by itself.

C#Cc1cccc(Nc2ncnc3cc(OCCOC)c(OCCO)cc23)c1: 2660
CC(C)CCCC(C)CCCC(C)CCCC(C)CC(=O)O (stereo not given): 5990
Cc1c(NC(=O)c2ccc(C(C)(C)C)cc2)cccc1-c1cn(C)c(=O)c(Nc2ccc(C(=O)N3CCOCC3)cc2)n1: 5460
COC1CCN(C(=O)c2cc(Cc3n[nH]c(=O)c4ccccc34)ccc2F)CC1: 6330
CC(Sc1nc2ccccc2[nH]1)C(=O)N/N=C/c1cc(Br)ccc1O (stereo not given): 6060
COc1cc2c(cc1OC)C(c1ccc(N)cc1)=NNC(=O)C2: 4030
COc1ccccc1N1CCN(CCCCN2C(=O)CCC2=O)CC1: 8300
CC(C)[C@H]1c2ccc(F)cc2CC[C@@]1(CCN(C)CCCc1nc2ccccc2[nH]1)OC(=O)C1CC1: 263
O=C(/C=C/c1ccc(/C=C/C(=O)Nc2ccc(C3=NCCN3)cc2)cc1)Nc1ccc(C2=NCCN2)cc1: 6840

Proceed to the following item.
Record summary for CCN(CC)CC1CCN(c2ncc3ncnc(Nc4ccc(F)c(Cl)c4)c3n2)CC1 : reported cell count = 1440

====

Listed next: entries and their corresponding SSMD.
test.description: compounds altering HSF1 focus formation in cells – imaging, Selleck Cancer Library (AID 1347162)
measurement.setup: human cells, HSF1 nuclear foci imaging, at 10 µM; measured here: HSF1 foci SSMD mean
Output: the number by itself.

Reference set (5 entries):
COc1ccc(-c2ccc3c(N4CCOCC4)nc(N4C[C@@H](C)O[C@@H](C)C4)nc3n2)cc1CO: -1.75
CCC(=O)N1CCN(c2ccc(-n3c(=O)ccc4cnc5ccc(-c6cnc7ccccc7c6)cc5c43)cc2C(F)(F)F)CC1: 1.96
COc1cc2ncnc(-n3nc(-c4ccccn4)nc3N)c2cc1OC: 1.68
Cn1cc(-c2ccc3nnc(Sc4ccc5ncccc5c4)n3n2)cn1: 1.79
CN(C)Cc1c(C(=O)NCCOc2ccc(C(=O)NO)cc2)oc2ccccc12: 0.722

Record summary for CCNC(=O)c1noc(-c2cc(C(C)C)c(O)cc2O)c1-c1ccc(CN2CCOCC2)cc1 : reported SSMD = 2.25

====

test.description: drug combination growth inhibition, ovarian cancer – cell-based, oncology-focused library, rucaparib conditional, profiling panel (AID 1508598)
measurement.setup: patient-derived ovarian cancer cells, CellTiter-Glo viability, 144 h; at 0.313 µM; OCI-C5x cells; without rucaparib; stronger effect = lower value
Listed next: entries and their corresponding viability.
The reply should be a number in %, with the unit left off.

CC[C@H](Nc1ncnc2nc[nH]c12)c1nc2cccc(F)c2c(=O)n1-c1ccccc1: 119

Record summary for CO[C@@H](C(=O)N1Cc2[nH]nc(NC(=O)c3ccc(N4CCN(C)CC4)cc3)c2C1)c1ccccc1 : reported viability = 89.6

Record summary for CC[C@@H]1C(=O)N(C)c2cnc(Nc3ccc(C(=O)NC4CCC(N5CCN(CC6CC6)CC5)CC4)cc3OC)nc2N1C(C)C (stereo partly drawn) : reported viability = 36.3

Record summary for Cc1nc(N)sc1-c1ccnc(Nc2ccc(N3CCOCC3)cc2)n1 : reported viability = 110

Record summary for CC(C)(C)c1cnc(CSc2cnc(NC(=O)C3CCNCC3)s2)o1 : reported viability = 97

Record summary for COC(=O)Nc1ccc(-c2nc(N3CCOCC3)c3cnn(C4CCN(C(=O)OC)CC4)c3n2)cc1 : reported viability = 114

Record summary for COc1cc(OC)c(/C=C/S(=O)(=O)Cc2ccc(OC)c(NCC(=O)O)c2)c(OC)c1 : reported viability = 35.9

Record summary for CN1CCCN(C(=O)c2cccc(-c3ccc(/C=C4/C(=O)Nc5ccc(Cl)cc54)o3)c2)CC1 : reported viability = 111

Record summary for CCN1CCN(Cc2ccc(-c3cc4c(N[C@H](C)c5ccccc5)ncnc4[nH]3)cc2)CC1 : reported viability = 146

====

test.description: drug combination growth inhibition, ovarian cancer – cell-based, oncology-focused library, rucaparib conditional, profiling panel (AID 1508598)
measurement.setup: patient-derived ovarian cancer cells, CellTiter-Glo viability, 144 h; at 0.0195 µM; OCI-P5x cells; without rucaparib; stronger effect = lower value
Listed next: entries and their corresponding viability.
The reply should be a number in %, with the unit left off.

c1ccc2c(CCNc3ccc(Nc4ccncc4)cc3)c[nH]c2c1: 122
CCN1CCN(Cc2ccc(-c3cc4c(N[C@H](C)c5ccccc5)ncnc4[nH]3)cc2)CC1: 115
CN(c1ncccc1CNc1nc(Nc2ccc3c(c2)CC(=O)N3)ncc1C(F)(F)F)S(C)(=O)=O: 106

Proceed to the following item.
Record summary for CN1CCCN(C(=O)c2cccc(-c3ccc(/C=C4/C(=O)Nc5ccc(Cl)cc54)o3)c2)CC1 : reported viability = 103

====

test.description: drug combination growth inhibition, ovarian cancer – cell-based, oncology-focused library, rucaparib conditional, profiling panel (AID 1508598)
measurement.setup: patient-derived ovarian cancer cells, CellTiter-Glo viability, 144 h; at 0.00488 µM; OCI-P5x cells; without rucaparib
Calls of active or inactive are those of the source.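 How the source made its calls: active means normalized viability below 100% at a tested concentration; inactive means the rest.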
Can you answer with just one of these options? T = active, F = inactive

CC(C)OC(=O)C1=CN(C(=O)c2ccc(F)c(F)c2)CC(C)(C)c2c1[nH]c1ccccc21: F
Cc1ccc(S(=O)(=O)Nc2nc3ccccc3nc2Nc2ccc3nsnc3c2)cc1: F
Cn1cc(-c2ccc3c(c2)CCN3C(=O)Cc2cccc(C(F)(F)F)c2)c2c(N)ncnc21: F
O=c1cc(N2CCOCC2)oc2c(-c3cccc4c3sc3ccccc34)cccc12: T
CNc1nc(-c2ccc3c(N)n[nH]c3c2)cc(N2C[C@@H](C(=O)NC3CCCCC3)CC[C@H]2C)n1: F
O=C(O)[C@H](Cc1c[nH]c2ccccc12)N1C(=O)c2ccccc2C1=O: T

Challenge: Would you mind telling me which call this test gave O=C(Nc1ccccc1-c1cn2c(CN3CCNCC3)csc2n1)c1cnc2ccccc2n1 ?
Response given: F

Challenge: Would you mind telling me which call this test gave NC(=O)Nc1cc(-c2cccc(F)c2)sc1C(=O)N[C@H]1CCCNC1 ?
Response given: T

Challenge: Would you mind telling me which call this test gave CNC(=O)c1ccc(N2C(=S)N(c3ccc(C#N)c(C(F)(F)F)c3)C(=O)C2(C)C)cc1F ?
Response given: T

Challenge: Would you mind telling me which call this test gave O=C(NCCCNc1nc(Nc2cccc(NC(=O)N3CCCC3)c2)ncc1I)c1cccs1 ?
Response given: F

Challenge: Would you mind telling me which call this test gave CS(=O)(=O)c1ccc(C(=O)Nc2ccc(Cl)c(-c3ccccn3)c2)c(Cl)c1 ?
Response given: T

Challenge: Would you mind telling me which call this test gave COc1cc2nccc(Oc3ccc(NC(=O)Nc4cc(C)on4)c(Cl)c3)c2cc1OC ?
Response given: T

Challenge: Would you mind telling me which call this test gave N#Cc1c(NC(=O)c2cccc3ccccc23)sc2c1CCCC2 ?
Response given: T

Challenge: Would you mind telling me which call this test gave CC1(O)CC(c2nc(-c3ccc4ccc(-c5ccccc5)nc4c3)c3c(N)nccn23)C1 (stereo not drawn) ?
Response given: F

Challenge: Would you mind telling me which call this test gave COc1ncc(-c2ccc3nccc(-c4ccnnc4)c3c2)cc1NS(=O)(=O)c1ccc(F)cc1F ?
Response given: T

Challenge: Would you mind telling me which call this test gave CNC(=O)c1cc(Oc2ccc(NC(=O)Nc3cc(C(C)(C)C)nn3-c3ccc4ncccc4c3)c(F)c2)ccn1 ?
Response given: F

Challenge: Would you mind telling me which call this test gave CC(C)[C@H](C(=O)Nc1ccc(C(=O)NO)cc1)c1ccccc1 ?
Response given: F

Challenge: Would you mind telling me which call this test gave CN[C@H]1CN(c2ccc3c(=O)c(C(=O)O)cn(-c4nccs4)c3n2)C[C@@H]1OC ?
Response given: T

Challenge: Would you mind telling me which call this test gave Cc1nc(Nc2n[nH]c3c2CN(C(=O)N[C@H](CN(C)C)c2ccccc2)C3(C)C)c2sccc2n1 ?
Response given: T

Challenge: Would you mind telling me which call this test gave CC[C@H](Nc1ncnc2nc[nH]c12)c1nc2cccc(F)c2c(=O)n1-c1ccccc1 ?
Response given: T

Challenge: Would you mind telling me which call this test gave C=C(c1ccc(C(=O)O)cc1)c1cc2c(cc1C)C(C)(C)CCC2(C)C ?
Response given: F

====

test.description: compounds altering circadian rhythm period length – cell-based, LOPAC library, luminescence reporter (AID 2774);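 also: values are relative to mean of DMSO wells on each plate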
measurement.setup: circadian reporter cells, at 7 µM, actives lie on both sides
The source made the active and inactive calls. How the calls were made is not given here.
Can you answer with just one of these options? active, inactive

Illustrative cases are given below, each with its answer.
CCC(CO)Nc1nc(NCc2ccccc2)c2ncn(C(C)C)c2n1 (stereo not given): active
CN(C)S(=O)(=O)c1ccc2c(c1)/C(=C/c1cc3c([nH]1)CCCC3)C(=O)N2: inactive
O=c1[nH]c2cc(C(F)(F)F)ccc2n1-c1cc(C(F)(F)F)ccc1O: inactive
CC(C)NC[C@H](O)c1ccc(O)c(O)c1: inactive

Challenge: Would you mind telling me which call this test gave OCc1ccc(-c2nn(Cc3ccccc3)c3ccccc23)o1 ?
Response given: inactive

Challenge: Would you mind telling me which call this test gave N#C/C(=C\c1ccc(O)c(O)c1)C(=O)NCCCc1ccccc1 ?
Response given: inactive

Challenge: Would you mind telling me which call this test gave C[C@@]1(C2CCCC2)Cc2cc(OCC(=O)O)c(Cl)c(Cl)c2C1=O ?
Response given: inactive

Challenge: Would you mind telling me which call this test gave NC(=O)c1cc[n+](CC2=C(C(=O)O)N3C(=O)[C@@H](NC(=O)[C@@H](c4ccccc4)S(=O)(=O)[O-])[C@H]3SC2)cc1 ?
Response given: inactive

Challenge: Would you mind telling me which call this test gave CC(C)(C)NCC(O)COc1nsnc1N1CCOCC1 (stereo not given) ?
Response given: inactive

Challenge: Would you mind telling me which call this test gave NS(=O)(=O)c1cccc2c1c([N+](=O)[O-])cc1nc(O)c(O)nc12 ?
Response given: inactive
